System: NCI/ADR-RES ovarian
Test: NCI-60 one-dose screen, 48 h (100 = growth as untreated, 0 = no growth, -100 = all killed)
Settings: 10 µM unless noted
Protocol: Growth inhibition of the NCI/ADR-RES human […] tumor cell line is measured as a screen for anti-cancer activity. Cells are grown in 96 well plates and exposed to the test compound for 48 hours. Compounds are tested at a single concentration, which is 10^-5 M for most compounds. The reported endpoint is percent growth (GI% or GIPRCNT), where numbers from 0 - 100% represent growth inhibition, and numbers from -100% - 0 represent cell death. For example, a value of 40 represents 60% growth inhibition. […]
About 83,000 compounds went through this panel and 20% of them were active in at least one assay; those are over-represented in the sample as a whole.
endpoint.name: growth (%)

- molecule: "O=[N+]([O-])c1cc(S(=O)(=O)Oc2ccccc2)ccc1Cl"
  endpoint.name: "growth"
  unit.spec: "%"
  value.observed: 46.6
- molecule: "CCOC(=O)c1cc(C(=O)c2cc(OC)c(OC)c(OC)c2)n2c1ccc1ccccc12"
  endpoint.name: "growth"
  unit.spec: "%"
  value.observed: 18
- molecule: "CNC(=S)NNC(=O)C1CC1"
  endpoint.name: "growth"
  unit.spec: "%"
  value.observed: 110
- molecule: "OC(c1cc2cc(Br)ccc2c2cc(Br)ccc12)C1CCCCN1 (stereo not given)"
  endpoint.name: "growth"
  unit.spec: "%"
  value.observed: -65.1
- molecule: "COc1cccc(CC(C)=C(c2ccc(OCCN(C)C)cc2)c2ccc(OCCN(C)C)cc2)c1"
  endpoint.name: "growth"
  unit.spec: "%"
  value.observed: 19
- molecule: "O=C(O)c1nc(-c2ccccc2)oc1N1CCOCC1"
  endpoint.name: "growth"
  unit.spec: "%"
  value.observed: 96.6
- molecule: "CCOC(=O)c1ccc2c(c1)c1c(C)c3cccnc3c(C)c1n2C"
  endpoint.name: "growth"
  unit.spec: "%"
  value.observed: 48.4
- molecule: "Cc1nn(-c2ccc(Cl)cc2)c2ncnc(N/N=C/c3cccc([N+](=O)[O-])c3)c12"
  endpoint.name: "growth"
  unit.spec: "%"
  value.observed: 105
- molecule: "c1cc(C2=N[C@@H]3c4ccccc4C[C@@H]3O2)nc(C2=N[C@@H]3c4ccccc4C[C@@H]3O2)c1"
  endpoint.name: "growth"
  unit.spec: "%"
  value.observed: 98.7
- molecule: "COc1ccc(S(=O)(=O)n2ccc(-c3ccc4c(c3)CCC(C)(C)O4)n2)cc1OC"
  endpoint.name: "growth"
  unit.spec: "%"
  value.observed: 56.5

---

Test system: BT-549 breast
Assay: NCI-60 one-dose screen, 48 h (100 = growth as untreated, 0 = no growth, -100 = all killed)
Conditions: 10 µM unless noted
About 83,000 compounds went through this panel and 20% of them were active in at least one assay; those are over-represented in the sample as a whole.
# note: exactly 90% is not below, so it is F; use T for growth strictly under it

- compound: "C=C[C@@H]1C[C@@H]2Cc3cc(F)ccc3N1O2"
  discrete.label: "F"
- compound: "CCCCCCCC/C=C/CCCCCCCC1=NC(C)(C)CN1C(C)(C)CO"
  discrete.label: "T"
- compound: "Cn1ccc(Nc2nccc(Oc3ccc(C(=O)Nc4cccc(F)c4)c(Cl)c3)n2)c1"
  discrete.label: "T"
- compound: "CCN1C(=O)N(CC)C2C1NN=c1s/c(=C\\c3cccnc3)c(=O)n12 (stereo not drawn)"
  discrete.label: "T"
- compound: "CCOC(=O)c1ccc2c(c1)nc(-c1ccc(OCc3ccccc3)c(OC)c1)n2-c1cc(C(C)(C)C)[nH]n1"
  discrete.label: "F"
- compound: "NC(N)=N/N=C/c1ccc(-c2ccc(-c3cc(Cl)cc(Cl)c3)s2)cc1"
  discrete.label: "F"
- compound: "COc1ccc(C2=C(c3cc(OC)c(OC)c(OC)c3)C(=O)CC2)cc1"
  discrete.label: "T"
- compound: "COc1ccc2[nH]c(=O)c(/C=N/Nc3nc(-c4ccccc4)cs3)c(O)c2c1"
  discrete.label: "T"
- compound: "Cn1cc(-c2cnc3ccc(NC(=O)Nc4ccc(F)c(Br)c4)cc3n2)cn1"
  discrete.label: "T"
- compound: "CC1(c2ccc(Cl)cc2)OC(=O)CC(=O)O1"
  discrete.label: "F"
- compound: "COc1ccc(C(=O)c2cc(OC)c(OC)c(OC)c2OC)cc1O"
  discrete.label: "T"
- compound: "S=c1[nH]nc(-c2cc3ccc2CCc2ccc(cc2)CC3)n1C1CC1"
  discrete.label: "F"
- compound: "C=COC(=O)CCCCCCCCC"
  discrete.label: "F"
- compound: "COc1cc(NC(N)=NCCC(C)(C)Oc2ccc(C(F)(F)F)cc2)ncc1C#N"
  discrete.label: "T"
- compound: "COc1ccc(-c2nc(SCCC(C)C)nc(Nc3ccc(F)c(Cl)c3)c2C#N)cc1"
  discrete.label: "F"
- compound: "O=S(=O)(c1ccc(OCCO)cc1)c1ccc(OCCO)cc1"
  discrete.label: "F"
- compound: "CCCCCc1cc[n+](CC(=O)c2ccc([N+](=O)[O-])cc2)cc1"
  discrete.label: "T"
- compound: "C=C[C@@H]1C[C@@H]2Cc3ccccc3N1O2"
  discrete.label: "F"
- compound: "Nc1ccc(C(=O)CSc2nc3ccccc3[nH]2)cc1"
  discrete.label: "F"

---

Test system: OVCAR-5 ovarian
Test: NCI-60 one-dose screen, 48 h
Conditions: 10 µM unless noted
The panel holds about 83,000 compounds, 20% with a hit somewhere; the sample as a whole holds those more often. Calls of active or inactive are those of the source. Rule for the calls: active = growth percent below 10; inactive = the rest.
Classes used: active, inactive

- compound: "CCCCCCCC[C@@H](O)CC(=O)N[C@@H](CC(N)=O)C(=O)N[C@@H](CCC(N)=O)C(=O)N[C@@H](CC(=O)c1cc(C)cc(O)c1C(=O)c1c(O)cccc1O)CC(C)C"
  discrete.label: "inactive"
- compound: "CN1C(=O)N(C)C2C1NN=c1s/c(=C\\c3cccnc3)c(=O)n12 (stereo not drawn)"
  discrete.label: "inactive"
- compound: "COc1ccc(C2CC(c3ccc(OC)cc3OC)=NN2c2ccc(S(N)(=O)=O)cc2)cc1 (stereo not drawn)"
  discrete.label: "inactive"
- compound: "COc1ccc(NC(=O)c2cc(OC)c(OC)c(OC)c2)cc1O"
  discrete.label: "inactive"
- compound: "Nc1nc(Nc2cc(Cl)cc(Cl)c2)nn1S(=O)(=O)c1ccc2ccccc2c1"
  discrete.label: "inactive"
- compound: "CCOC(=O)NNC(=S)Nc1ccccc1"
  discrete.label: "inactive"
- compound: "COc1ccc2c(c1)[nH]c(=O)c1c3cccc(F)c3cn21"
  discrete.label: "inactive"
- compound: "Nc1cccc(-c2nc3sccn3c2-c2ccnc(NCCCNS(=O)(=O)c3cccc4ccccc34)n2)c1"
  discrete.label: "inactive"
- compound: "COc1ccc(NC(=O)CSc2nc(-c3ccc(OC)c(OC)c3)cc(-c3cc(OC)c(OC)c(OC)c3)n2)cc1"
  discrete.label: "inactive"
- compound: "O=C1/C(=C/c2ccc([N+](=O)[O-])cc2)CN(C(=O)CCN2CCC(=NO)CC2)C/C1=C\\c1ccc([N+](=O)[O-])cc1"
  discrete.label: "active"
- compound: "O=C(Nc1cccc(-n2cc(-c3ccncc3)c(-c3ccc(Cl)c(O)c3)n2)c1)c1ccccc1"
  discrete.label: "inactive"
- compound: "CCOC(=O)c1ccc2c(c1)c1c(C)c3cccnc3c(C)c1n2C"
  discrete.label: "inactive"
- compound: "Cc1[nH]c2ccc(F)cc2c1CCNC(=O)C1CCN(C(=O)c2ccccc2)CC1"
  discrete.label: "inactive"
- compound: "O=C(O)COc1ccc(-c2cssc2=S)cc1"
  discrete.label: "inactive"
- compound: "Cc1ccc(S(=O)(=O)C2=C3C(=C(c4ccccc4)c4ccccc43)CN(S(=O)(=O)c3ccc(C)cc3)C2)cc1"
  discrete.label: "inactive"
- compound: "COc1cc(-c2nn(C(=O)NS(=O)(=O)c3ccccc3)cc2-c2ccncc2)ccc1Cl"
  discrete.label: "inactive"
- compound: "CC(C)(C)n1cc(-c2ccnc(NCCNS(=O)(=O)c3ccc(C(F)(F)F)cc3)c2)c(-c2cccc(O)c2)n1"
  discrete.label: "inactive"
- compound: "O=C(CSc1nc2ccccc2[nH]1)c1ccc(N2CCOCC2)cc1"
  discrete.label: "inactive"
- compound: "O=C(NCCCNc1nccc(-n2ccc3cccnc32)n1)c1c(F)cccc1F"
  discrete.label: "inactive"
- compound: "Clc1cccc(-c2cc(-c3ccc4c(c3)OCCO4)[nH]n2)c1"
  discrete.label: "inactive"
- compound: "C=C1C(=O)O[C@H]2[C@H]1CC/C(Cn1cc(CNC(=O)c3cc4ccccc4[nH]3)nn1)=C\\CC[C@@]1(C)O[C@@H]21"
  discrete.label: "inactive"
- compound: "O=C1NN(C(=O)c2ccc(Cl)cc2)C(c2ccccc2)=N/C1=C\\c1cn(-c2ccccc2)nc1-c1ccccc1"
  discrete.label: "inactive"
- compound: "COc1cccc(CC(C)=C(c2ccc(OCCN3CCCCC3)cc2)c2ccc(OCCN3CCCCC3)cc2)c1"
  discrete.label: "inactive"
- compound: "CC1(c2ccc(Cl)cc2)OC(=O)CC(=O)O1"
  discrete.label: "inactive"
- compound: "COc1ccc(C(=O)N2NC(=O)/C(=C/c3ccc(F)cc3)N=C2c2ccccc2)cc1"
  discrete.label: "inactive"
- compound: "COc1ccc(C(=O)N2NC(=O)/C(=C/c3ccc(Br)cc3)N=C2c2ccccc2)cc1"
  discrete.label: "inactive"
- compound: "O=c1cc(Cc2ccc([N+](=O)[O-])cc2)[nH]c(=O)[nH]1"
  discrete.label: "inactive"
- compound: "O=C(Nc1ccncc1)C(=O)c1cn(S(=O)(=O)c2ccc(Cl)cc2)c2ccccc12"
  discrete.label: "inactive"
- compound: "O=C(CSc1nc2ccccc2[nH]1)Nc1ccc(-c2nc3ccccc3s2)c(Cl)c1"
  discrete.label: "inactive"
- compound: "Nc1ccc(C(=O)CSc2nc3ccccc3[nH]2)cc1"
  discrete.label: "inactive"
- compound: "O=C1/C(=C/c2ccc(Cl)cc2)CN(C(=O)CCN2CCC(=NO)CC2)C/C1=C\\c1ccc(Cl)cc1"
  discrete.label: "active"
- compound: "O=C(Nc1ccncc1)C(=O)c1cn(S(=O)(=O)c2ccc(Br)cc2)c2ccccc12"
  discrete.label: "inactive"
- compound: "COC(OC)c1ccccc1"
  discrete.label: "inactive"
- compound: "CCCN=C1NC(=O)/C(=C/c2nc(-c3ccc(OC)cc3)n3ccccc23)S1"
  discrete.label: "inactive"
- compound: "CCCCCCCCCCCC(=O)NCCC[N+](C)(C)CC(=O)[O-]"
  discrete.label: "inactive"
- compound: "COc1cccc(-c2nc3sccn3c2-c2ccnc(NCCCNS(=O)(=O)c3ccc(F)cc3)c2)c1"
  discrete.label: "inactive"
- compound: "COc1ccc(C2C=C(c3ccc(N)cc3)N=C3SC=CN32)cc1OC (stereo not drawn)"
  discrete.label: "inactive"
- compound: "O=[N+]([O-])c1cccc(-c2nc3sccn3c2-c2ccnc(NCCCNS(=O)(=O)c3ccc(C(F)(F)F)cc3)n2)c1"
  discrete.label: "inactive"
